- assay.name: Human HepG2 cell viability assay in 384 well format
- Format: toxicity, cell-based
- Design: dose 125 nL, time 70.5 hour; concentration not given beside the values
- cond: HepG2 cells, read-out: Inhibition
test.readout: cytotoxicity at 70.5 h (%)
Please give a number only; it is taken to be in %.

As a guide, the following entries are already answered.
{"molecule": "CC(NC(=O)CSCC#N)c1cccc(Cl)c1 (configuration not stated)", "cytotoxicity at 70.5 h, %": -9.11}
{"molecule": "CC/C=C(\\C)CN1CCC(CNC(=O)c2ccnc(N)c2)C1 (configuration not stated)", "cytotoxicity at 70.5 h, %": 15}
{"molecule": "CCOc1cc(C(=O)NS(C)(=O)=O)cc(-c2ccccc2)c1OC", "cytotoxicity at 70.5 h, %": 0.968}
{"molecule": "OC1CCN(c2ccnc(NCCc3ccccc3Cl)n2)C1 (configuration not stated)", "cytotoxicity at 70.5 h, %": -3.46}
{"molecule": "Cc1cc(C2CCNCC2)nc(-c2ccsc2)n1", "cytotoxicity at 70.5 h, %": -8.24}
{"molecule": "CN1C(=O)C2(CC(=O)Nc3[nH]ncc32)c2cc(F)ccc21 (configuration not stated)", "cytotoxicity at 70.5 h, %": -19.4}
{"molecule": "Cc1ccccc1C(C(=O)NCCn1cccc1)N(C)C (configuration not stated)", "cytotoxicity at 70.5 h, %": -9.04}
{"molecule": "O=C(NCC1(CO)CC1)c1ccccc1Cl", "cytotoxicity at 70.5 h, %": -14.1}

Please fill in: cytotoxicity at 70.5 h reported for CCCc1nnc(N2CCN(c3ccccc3Cl)CC2)o1 = -0.178

Please fill in: cytotoxicity at 70.5 h reported for N#CCCCN1CCCC1Cc1ccccc1 (configuration not stated) = -3.84

Please fill in: cytotoxicity at 70.5 h reported for COCCN1CCO[C@H]2CN(Cc3cc[nH]n3)C[C@H]21 = -7.3

Please fill in: cytotoxicity at 70.5 h reported for Cc1cc(N2CCCN(C(=O)Cc3ccc(O)c(Cl)c3)CC2)ccn1 = -4.07

Please fill in: cytotoxicity at 70.5 h reported for Cc1nc(O)cc(C2CCN(Cc3ccc(F)c(F)c3)C2)n1 (configuration not stated) = -5.53

Please fill in: cytotoxicity at 70.5 h reported for CCCNc1ncc(-c2cc(C3CC3)nc(N)c2C#N)cn1 = -12.1

Please fill in: cytotoxicity at 70.5 h reported for C[C@@H]1CN(C(=O)c2cc(Cn3ccc4ccccc43)[nH]n2)C[C@H](C)O1 = 26.1

Please fill in: cytotoxicity at 70.5 h reported for Cc1nc(C)n(CC2CCCN(CCNC(=O)OC(C)(C)C)C2)n1 (configuration not stated) = -0.801

Please fill in: cytotoxicity at 70.5 h reported for O=C(c1cscn1)N1CC[C@H]2C[C@H](c3nnc(C4CC4)o3)O[C@@H]2C1 = -10.6

----------
- assay.name: Human HepG2 cell viability assay in 384 well format
- Format: toxicity, cell-based
- Design: dose 125 nL, time 70.5 hour; concentration not given beside the values
- cond: HepG2 cells, read-out: Inhibition
# cytotoxicity at 70.5 h listing for each entry below
Please give a number only; it is taken to be in %.

As a guide, the following entries are already answered.
{"compound": "CC(O)CN1CCN(C(=O)c2ccc3c(c2)COC3)CC1 (stereo unspecified)", "cytotoxicity at 70.5 h / %": 22.6}
{"compound": "O=S(=O)(c1cccnc1)N1CCN(Cc2nc(-c3ccco3)cs2)CC1", "cytotoxicity at 70.5 h / %": 0.0264}
{"compound": "Cc1nnsc1C(=O)N1CCN(CC2CC2)[C@@H]2CS(=O)(=O)C[C@@H]21", "cytotoxicity at 70.5 h / %": -13.8}
{"compound": "Cc1nn(C)c(C)c1NC(=O)CCn1ncc2c(C)cccc21", "cytotoxicity at 70.5 h / %": -5.31}
{"compound": "Cc1ccc(-n2c(O)cc(C)c(C#N)c2=O)c(C)c1", "cytotoxicity at 70.5 h / %": -1.45}
{"compound": "COc1ccccc1C(=O)C1CCCN(c2cc(C#N)ccn2)C1 (stereo unspecified)", "cytotoxicity at 70.5 h / %": -1.63}
{"compound": "CNC(=O)C1Cc2ccccc2CN1CCC#N (stereo unspecified)", "cytotoxicity at 70.5 h / %": 4.8}
{"compound": "CCn1c(C)nc2cc(NC(=O)CC3CCN(S(C)(=O)=O)CC3)ccc21", "cytotoxicity at 70.5 h / %": -18.6}
{"compound": "O=C(O)[C@@]12CN(c3cnccn3)C[C@@H]1CN(C1CCCC1)C2", "cytotoxicity at 70.5 h / %": -7.64}
{"compound": "CCc1ccsc1C(=O)N1CCCN(Cc2cscn2)CC1", "cytotoxicity at 70.5 h / %": 3.8}

Please fill in: cytotoxicity at 70.5 h reported for Cc1cc(C)c2nc(CN(C)C(C)c3ccncn3)cc(O)c2c1 (stereo unspecified) = -4.38
